- assayed-target: human κ (CHO-KOR) opioid receptor (Homo sapiens)
- Construct: expressed in transfected cells
- Sequence (P41145 whole entry): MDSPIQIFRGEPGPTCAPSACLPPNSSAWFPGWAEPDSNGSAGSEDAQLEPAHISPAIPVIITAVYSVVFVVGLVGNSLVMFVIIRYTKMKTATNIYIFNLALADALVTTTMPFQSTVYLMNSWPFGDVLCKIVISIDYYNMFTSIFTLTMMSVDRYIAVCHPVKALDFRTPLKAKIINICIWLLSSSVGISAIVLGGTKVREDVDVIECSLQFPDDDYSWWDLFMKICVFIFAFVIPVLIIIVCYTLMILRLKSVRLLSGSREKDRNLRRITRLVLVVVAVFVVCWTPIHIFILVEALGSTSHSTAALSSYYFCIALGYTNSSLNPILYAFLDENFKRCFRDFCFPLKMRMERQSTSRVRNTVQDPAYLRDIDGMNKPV
- protocol-details: Stimulation of [35S]GTPγS binding, KOR
- Type: biochemical
- experimental-context: [35S]GTPγS maximal stimulation compared with 10 μM standard U-69,593
reported-property: Emax (%)
The answer is to be given in %; state only the numeric part.

molecule | Emax, %
CCCN1CC[C@@H](NC(=O)[C@@H](N)Cc2c(C)cc(O)cc2C)c2cc(Cc3ccccc3)ccc21 | 38.2

### Prompt Endpoint output: Emax of `Cc1cc(O)cc(C)c1C[C@H](N)C(=O)N[C@@H]1CCNc2c(Br)cc(Cc3ccccc3)cc21` . Value?
### Response 30

### Prompt Endpoint output: Emax of `Cc1cc(O)cc(C)c1C[C@H](N)C(=O)N[C@@H]1CCNc2ccc(Cc3ccc(F)cc3)cc21` . Value?
### Response 9

### Prompt Endpoint output: Emax of `CCCCCCc1ccc2c(c1)[C@@H](NC(=O)[C@@H](N)Cc1c(C)cc(O)cc1C)CCN2` . Value?
### Response 0

### Prompt Endpoint output: Emax of `CC(=O)N1CC[C@@H](NC(=O)[C@@H](N)Cc2c(C)cc(O)cc2C)c2cc(Oc3ccc(Cl)cc3)ccc21` . Value?
### Response 47.3

### Prompt Endpoint output: Emax of `CCCCCc1ccc2c(c1)[C@H](NC(=O)[C@@H](N)Cc1c(C)cc(O)cc1C)CCN2` . Value?
### Response 23.7

### Prompt Endpoint output: Emax of `Cc1cc(O)cc(C)c1C[C@H](N)C(=O)N[C@@H]1CCNc2ccc(S(=O)(=O)c3ccccc3)cc21` . Value?
### Response 38.5

### Prompt Endpoint output: Emax of `Cc1cc(O)cc(C)c1C[C@H](N)C(=O)N[C@H]1CCN(C)c2ccc(Cc3ccccc3)cc21` . Value?
### Response 1.6

### Prompt Endpoint output: Emax of `Cc1ccc(Cc2ccc3c(c2)[C@H](NC(=O)[C@@H](N)Cc2c(C)cc(O)cc2C)CCN3)cc1` . Value?
### Response 14
